Entries and their measured IC50 follow.
system_tested: PKC epsilon (Homo sapiens)
Construct: purchased Invitrogen P2282
Sequence (Q02156 1-737): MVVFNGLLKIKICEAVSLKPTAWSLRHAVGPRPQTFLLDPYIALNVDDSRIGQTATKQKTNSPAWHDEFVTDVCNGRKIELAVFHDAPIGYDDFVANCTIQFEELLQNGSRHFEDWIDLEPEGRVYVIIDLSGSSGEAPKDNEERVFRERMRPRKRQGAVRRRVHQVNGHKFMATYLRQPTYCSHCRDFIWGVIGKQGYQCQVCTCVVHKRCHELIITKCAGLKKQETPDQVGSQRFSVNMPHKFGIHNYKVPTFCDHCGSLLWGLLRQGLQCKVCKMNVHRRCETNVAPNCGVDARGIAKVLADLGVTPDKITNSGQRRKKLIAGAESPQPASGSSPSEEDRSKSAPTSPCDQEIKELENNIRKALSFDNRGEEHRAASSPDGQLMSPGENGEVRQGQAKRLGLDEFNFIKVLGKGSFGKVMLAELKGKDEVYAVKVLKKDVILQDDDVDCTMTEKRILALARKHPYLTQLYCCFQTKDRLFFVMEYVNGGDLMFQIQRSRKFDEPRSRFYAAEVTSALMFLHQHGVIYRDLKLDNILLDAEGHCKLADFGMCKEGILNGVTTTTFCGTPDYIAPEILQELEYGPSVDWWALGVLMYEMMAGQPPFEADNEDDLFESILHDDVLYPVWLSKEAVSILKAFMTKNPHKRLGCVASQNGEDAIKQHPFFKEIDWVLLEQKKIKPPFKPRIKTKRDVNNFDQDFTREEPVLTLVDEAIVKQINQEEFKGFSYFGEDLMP
test_summary: Biochemical assay for PKC epsilon (fluorescence polarization, Protein Kinase C Assay Kit, Red)
condition_notes: read-out: IC50 μM PKCε

Completed entries (count: 6):
compound	IC50
NC(c1ccc(C(=O)Nc2ccncc2)cc1)C1CCCN1C(=O)Cc1cccc2ccccc12 (centres unmarked)	0.5 to 5 µM
CCCCNC(=O)NCC(N)c1ccc(C(=O)Nc2ccncc2)cc1 (centres unmarked)	0.5 to 5 µM
CN(CC(N)c1ccc(C(=O)Nc2ccncc2)cc1)C(=O)Cc1ccc(Cl)cc1Cl (centres unmarked)	5 to 50 µM
NC(c1ccc(C(=O)Nc2ccncc2)cc1)C1CCCN1C(=O)Cc1ccc2ccccc2c1 (centres unmarked)	0.5 to 5 µM
COc1ccc(C2(C(=O)N(C)CC(N)c3ccc(C(=O)Nc4ccncc4)cc3)CC2)cc1 (centres unmarked)	5 to 50 µM
NC(c1ccc(C(=O)Nc2ccncc2)cc1)C1CCCN1C(=O)C(c1ccccc1)C1CCCCC1 (centres unmarked)	0.5 to 5 µM

Query :: Dear colleague, please send me the reported IC50 for CN(CC(N)c1ccc(C(=O)Nc2ccncc2)cc1)C(=O)C1(c2ccc(F)c(F)c2)CCC1 (centres unmarked) when you can.
Result :: 0.5 to 5 µM

Query :: Dear colleague, please send me the reported IC50 for CN(CC(N)c1ccc(C(=O)Nc2ccncc2)cc1)C(=O)Cc1cccc(F)c1F (centres unmarked) when you can.
Result :: 5 to 50 µM

---

system_tested: PKC epsilon (Homo sapiens, UniProt Q02156)
Construct: purchased Invitrogen P2282
test_summary: Biochemical assay for PKC epsilon (fluorescence polarization, Protein Kinase C Assay Kit, Red)
condition_notes: IC50 μM PKCε, Table 2, compounds of Formula XIII
measurement_name: IC50

Query :: Dear colleague, please send me the reported IC50 for NC(CNC(=O)Cc1c(F)cccc1F)c1ccc(C(=O)Nc2ccncc2)cc1 (stereo not shown) when you can.
Result :: 0.5 to 5 µM

---

Entries and their measured IC50 follow.
system_tested: PKC epsilon (Homo sapiens, UniProt Q02156)
Construct: purchased Invitrogen P2282
test_summary: Biochemical assay for PKC epsilon (fluorescence polarization, Protein Kinase C Assay Kit, Red)
condition_notes: compounds of Formula XIV, Table 3; read-out: IC50 μM PKCε

Completed entries (count: 3):
compound	system_tested	result
NC(CC(=O)NCCc1ccccc1F)c1ccc(C(=O)Nc2ccncc2)cc1 (stereo not shown)	PKC epsilon (Homo sapiens, UniProt Q02156)	0.5 to 5 µM
NC(CC(=O)NCc1ccccc1Cl)c1ccc(C(=O)Nc2ccncc2)cc1 (stereo not shown)	PKC epsilon (Homo sapiens, UniProt Q02156)	0.5 to 5 µM
Cc1ccc(CN2CCC(NC(=O)CC(N)c3ccc(C(=O)Nc4ccncc4)cc3)CC2)s1 (stereo not shown)	PKC epsilon (Homo sapiens, UniProt Q02156)	0.5 to 5 µM

We next turn to a different compound, shown below.
Query :: Dear colleague, please send me the reported IC50 for NC(CC(=O)NC1CCCc2ccccc21)c1ccc(C(=O)Nc2ccncc2)cc1 (single isomer, unassigned) [Compound 221] when you can.
Result :: 0.05 to 0.5 µM

---

Entries and their measured IC50 follow.
system_tested: PKC epsilon (Homo sapiens)
Construct: purchased Invitrogen P2282
test_summary: Biochemical assay for PKC epsilon (fluorescence polarization, Protein Kinase C Assay Kit, Red)
condition_notes: read-out: IC50 μM PKCε

Completed entries (count: 3):
molecule	measurement_name	result
N[C@H](CC(=O)N[C@H]1COc2ccccc21)c1ccc(C(=O)Nc2ccncc2)cc1	IC50	0.05 to 0.5 µM
NC(c1ccc(C(=O)Nc2ccncc2)cc1)C1CCCN1C(=O)Cc1ccc(F)cc1F (stereo not shown)	IC50	0.5 to 5 µM
NC(CNC(=O)Nc1ccc2ccccc2c1)c1ccc(C(=O)Nc2ccncc2)cc1 (stereo not shown)	IC50	0.5 to 5 µM

We next turn to a different molecule, shown below.
Query :: Dear colleague, please send me the reported IC50 for NC(c1ccc(C(=O)Nc2ccncc2)cc1)C1CCCN1C(=O)C1(c2cccc(F)c2)CCCC1 (stereo not shown) when you can.
Result :: 0.5 to 5 µM

---

system_tested: PKC epsilon (Homo sapiens, UniProt Q02156)
Construct: purchased Invitrogen P2282
test_summary: Biochemical assay for PKC epsilon (fluorescence polarization, Protein Kinase C Assay Kit, Red)
condition_notes: read-out: IC50 μM PKCε
Entries and their measured IC50 follow.

Query :: Dear colleague, please send me the reported IC50 for NC(c1ccc(C(=O)Nc2ccncc2)cc1)C1CCCN1C(=O)C1(c2ccc(F)cc2F)CC1 (centres unmarked) when you can.
Result :: 0.5 to 5 µM

Query :: Dear colleague, please send me the reported IC50 for N[C@H](CC(=O)NC1COc2ccccc21)c1ccc(C(=O)Nc2ccncc2)cc1 (mixture of isomers) when you can.
Result :: < 0.05 µM

---

system_tested: PKC epsilon (Homo sapiens)
Construct: purchased Invitrogen P2282
test_summary: Biochemical assay for PKC epsilon (fluorescence polarization, Protein Kinase C Assay Kit, Red)
condition_notes: read-out: IC50 μM PKCε
measurement_name: IC50

Completed entries (count: 8):
compound	IC50
COc1ccc(NC(=S)NCC(N)c2ccc(C(=O)Nc3ccncc3)cc2)cc1 (centres unmarked) [Compound 14]	0.5 to 5 µM
COc1ccc(CC(=O)N(C)CC(N)c2ccc(C(=O)Nc3ccncc3)cc2)cc1 (centres unmarked) [Compound 427]	5 to 50 µM
Cc1ccccc1NC(=S)NCC(N)c1ccc(C(=O)Nc2ccncc2)cc1 (centres unmarked) [Compound 12]	0.05 to 0.5 µM
NC(c1ccc(C(=O)Nc2ccncc2)cc1)C1CCCN1C(=O)Cc1ccc(Cl)c(Cl)c1 (centres unmarked) [Compound 592]	0.5 to 5 µM
CN(CC(N)c1ccc(C(=O)Nc2ccncc2)cc1)C(=O)C1(c2ccc(F)cc2F)CC1 (centres unmarked) [Compound 481]	5 to 50 µM
NC(c1ccc(C(=O)Nc2ccncc2)cc1)C1CCCN1C(=O)Cc1cncc(Br)c1 (centres unmarked) [Compound 543]	5 to 50 µM
NC(c1ccc(C(=O)Nc2ccncc2)cc1)C1CCCN1C(=O)C1CCCc2ccccc21 (centres unmarked) [Compound 613]	0.5 to 5 µM
NC(CNC(=S)Nc1cccc2ccccc12)c1ccc(C(=O)Nc2ccncc2)cc1 (centres unmarked) [Compound 17]	0.05 to 0.5 µM

Query :: Dear colleague, please send me the reported IC50 for NC(CNC(=O)Nc1ccc(-c2ccccc2)cc1)c1ccc(C(=O)Nc2ccncc2)cc1 (centres unmarked) [Compound 22] when you can.
Result :: 0.5 to 5 µM

Query :: Dear colleague, please send me the reported IC50 for COc1ccc(CC(=O)N2CCCC2C(N)c2ccc(C(=O)Nc3ccncc3)cc2)cc1 (centres unmarked) [Compound 528] when you can.
Result :: 0.5 to 5 µM

Query :: Dear colleague, please send me the reported IC50 for NC(c1ccc(C(=O)Nc2ccncc2)cc1)C1CCCN1C(=O)Cc1cc(F)ccc1F (centres unmarked) [Compound 579] when you can.
Result :: 5 to 50 µM

Query :: Dear colleague, please send me the reported IC50 for CN(CC(N)c1ccc(C(=O)Nc2ccncc2)cc1)C(=O)C1CCOc2ccc(Cl)cc21 (centres unmarked) [Compound 515] when you can.
Result :: 5 to 50 µM

Query :: Dear colleague, please send me the reported IC50 for Cc1cccc(CC(=O)N2CCCC2C(N)c2ccc(C(=O)Nc3ccncc3)cc2)c1 (centres unmarked) [Compound 524] when you can.
Result :: 5 to 50 µM

Query :: Dear colleague, please send me the reported IC50 for CN(CC(N)c1ccc(C(=O)Nc2ccncc2)cc1)C(=O)Cc1ccc(F)cc1F (centres unmarked) [Compound 479] when you can.
Result :: 5 to 50 µM

Query :: Dear colleague, please send me the reported IC50 for COc1ccccc1CC(=O)N1CCCC1C(N)c1ccc(C(=O)Nc2ccncc2)cc1 (centres unmarked) [Compound 526] when you can.
Result :: 5 to 50 µM

Query :: Dear colleague, please send me the reported IC50 for NC(c1ccc(C(=O)Nc2ccncc2)cc1)C1CCCN1C(=O)C1CCCc2sccc21 (centres unmarked) [Compound 621] when you can.
Result :: 0.5 to 5 µM

Query :: Dear colleague, please send me the reported IC50 for NC(c1ccc(C(=O)Nc2ccncc2)cc1)C1CCCN1C(=O)Cc1c(Cl)cccc1Cl (centres unmarked) [Compound 590] when you can.
Result :: 5 to 50 µM
